Hi there, I'd appreciate the recorded pIC50 for every entry that follows.
# System Tested: UniProtKB O42713
# Sequence (O42713 whole entry): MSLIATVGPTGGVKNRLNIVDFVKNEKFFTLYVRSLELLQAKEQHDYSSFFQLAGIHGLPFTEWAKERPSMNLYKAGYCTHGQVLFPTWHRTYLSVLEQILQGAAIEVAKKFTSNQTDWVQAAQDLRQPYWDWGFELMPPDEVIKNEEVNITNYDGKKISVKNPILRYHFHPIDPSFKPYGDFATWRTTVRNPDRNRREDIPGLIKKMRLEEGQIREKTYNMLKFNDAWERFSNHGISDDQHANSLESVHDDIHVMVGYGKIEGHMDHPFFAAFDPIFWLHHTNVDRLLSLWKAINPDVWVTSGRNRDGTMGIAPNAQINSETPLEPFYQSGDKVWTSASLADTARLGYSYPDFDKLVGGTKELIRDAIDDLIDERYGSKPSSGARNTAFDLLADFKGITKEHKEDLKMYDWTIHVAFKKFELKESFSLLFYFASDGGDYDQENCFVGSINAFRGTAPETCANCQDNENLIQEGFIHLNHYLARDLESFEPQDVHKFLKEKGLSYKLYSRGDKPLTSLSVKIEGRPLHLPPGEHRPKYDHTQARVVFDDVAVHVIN
# Protocol Details: Inhibition of mushroom tyrosinase
Recall that pIC50 is obtained by taking minus log10 of the concentration measured in molar.

Ask | Dear colleague, I am looking for the recorded pIC50 of the following compound: O=C(/C=C/c1ccc2c(c1)OCCO2)OCc1cc(=O)c(O)co1
Reply | 5.82

Ask | Dear colleague, I am looking for the recorded pIC50 of the following compound: COc1ccc(C(=O)OCc2cc(=O)c(O)co2)cc1
Reply | 4.70

Ask | Would you mind telling me what pIC50 value was observed for O=c1cc(CSc2ccc(O)cc2)occ1O ?
Reply | 6.27

Ask | Any idea what its pIC50 is? The compound is O=c1cc(Cn2cc(COc3ccc([N+](=O)[O-])cc3)nn2)occ1O
Reply | 7.22

Ask | Any idea what pIC50 was measured for O=c1cc(Cn2cc(COc3cccc(F)c3)nn2)occ1O ?
Reply | 7.22

Ask | Quick one: pIC50 of N#Cc1ccc(OCc2cn(Cc3cc(=O)c(O)co3)nn2)cc1 ?
Reply | 7.22

Ask | Requested field: pIC50. Item: O=C(OCc1cc(=O)c(O)co1)c1ccc2c(c1)OCO2
Reply | 5.82

Ask | Look at this compound and give its reported pIC50. O=c1cc(Cn2cc(COc3ccc(Cl)cc3)nn2)occ1O
Reply | 7.22

Ask | Which measured pIC50 value corresponds to O=c1cc(Cn2cc(COc3ccc(Cl)cc3Cl)nn2)occ1O ?
Reply | 7.22

Ask | # get_value(readout='pIC50', item= O=C(OCc1cc(=O)c(O)co1)c1ccc2c(c1)OCCO2 )
Reply | 5.82

Ask | Return reported pIC50; argument: O=C(/C=C/c1ccc2c(c1)OCO2)OCc1cc(=O)c(O)co1
Reply | 5.85

Ask | // pIC50 lookup, key: O=c1cc(CO)oc(CN2CCN(Cc3ccc(Cl)c(Cl)c3)CC2)c1O
Reply | 4.06

Ask | # input compound: O=c1cc(Cn2cc(COc3ccc(Br)cc3)nn2)occ1O ; wanted: its pIC50
Reply | 7.22

---

# Protocol Details: Inhibition of HIV-1 integrase
# Parameters: species or system Human immunodeficiency virus 1
Kindly supply the reported IC50 values for the records listed here.
Quick reminder: number only, in nM, skip the unit.

Ask | Recorded IC50 of Cc1cc(=O)c(O)c(C(=O)NCc2ccc(Cl)cc2)o1 , please.
Reply | 1720

Ask | What does the record list as IC50 for Cc1cc(=O)c(O)c(C(=O)NCc2ccc(F)cc2)o1 ?
Reply | 370

---

# Protocol Details: Antiinflammatory activity in macrophages assessed as reduction in LPS-induced NO production
# Format: functional, cell-based
# Assay Context: Macrophage
Observable: IC50 (µM)
Write the answer as a number in µM, unit excluded.

Ask | Form field: reported IC50 of O=c1cc(CSc2ccc(Cl)cc2)occ1O
Reply | 23.9
